- TESTED_TARGET: T1, human CD39 (Accession No. NM_001776.6) expressed on cells (human, UniProt P49961 1-510)
- T1 construct: whole, on cells; On Jurkat, 293T or SK-MEL28 cells; also called Jurkat/CD39; 293T/CD39
- T1 sequence (looked up): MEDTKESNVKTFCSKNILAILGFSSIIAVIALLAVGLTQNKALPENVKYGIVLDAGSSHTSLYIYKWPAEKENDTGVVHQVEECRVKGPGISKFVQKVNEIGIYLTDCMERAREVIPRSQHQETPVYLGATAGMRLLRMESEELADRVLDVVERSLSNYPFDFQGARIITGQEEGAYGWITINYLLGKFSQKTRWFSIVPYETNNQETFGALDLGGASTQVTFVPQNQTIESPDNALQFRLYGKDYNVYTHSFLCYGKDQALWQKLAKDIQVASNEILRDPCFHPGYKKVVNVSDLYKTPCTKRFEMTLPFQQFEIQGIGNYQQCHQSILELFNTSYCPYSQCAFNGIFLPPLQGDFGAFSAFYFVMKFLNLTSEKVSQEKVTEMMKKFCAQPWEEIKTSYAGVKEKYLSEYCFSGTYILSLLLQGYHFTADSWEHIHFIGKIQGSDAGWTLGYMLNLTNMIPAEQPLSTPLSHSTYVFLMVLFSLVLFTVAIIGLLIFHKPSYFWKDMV
- PROCEDURE_DETAILS: flow cytometry, 293T/CD39 cells, KD from MFI
Here the recorded pKd is given for each entry.
Field pKd (float): negative decimal logarithm of the concentration in molar.

6-3hIG_LA (antibody, V domains shown, IgG1LALA homodimeric antibody; also called IgG1LALA homodimeric antibody of anti-CD39 antibody (humanized) 6-3hIG) VH: QVQLVQSGAELVKPGASVKLSCKASGFSIKDTYVHWVKQAPGKGLEWIGKIDPANVNTKFDPKFQGRVTITADTSTNTAYLQLSSLRSEDTAVYYCALYGYDDDAYYFDYWGQGTLVTVSS VL: EIVLTQSPASLSVSPGERATISCRASESVDNYGISFMNWFQQKPGQAPKLLIYAASNQGSGVPARFSGSGSGTDFTLTISSLEPEDFAVYYCQQSKEVPYTFGQGTKLEIK | 8.15

Next:
# get_value(readout='pKd', item= mAnE67_sc (antibody, scFv-Fc homodimer, anti-CD39 (mouse variable regions); also called scFv-Fc homodimeric antibody of anti-CD39_scFv antibody mAnE67; not shown: linker and Fc-LALA (human IgG1 Fc with L234A and L235A)) scFv: EVQLVESGGGLVKPGGSRKLSCAASGFTFSDYGMHWVRQAPEKGLEWVAYISSGSSIIYYADTVKGRFTISRDNAKNTLFLQMTGLRSEDTAMYYCARKDYPYAMDYWGQGTSLAVSSGGGGSGGGGSGGGGSGGGGSSIVMTQTPKFMSTSVGDRVSVTCKASQNVGTNVAWYQQKPGQSPKALIYWASNRFTGVPDRFTGSGSGTDFTLTISNVQSEDLADYFCQQYSSSPYTFGSGTKLEIK ) 8.66

Each recorded value in this set is attributed to patent US20260085127A1.
